Ref: patent US20140056902A1

# kon per entry
Target: T1, human mature dimer BMP9 recombinant protein (manufactured by R&D systems, Cat#3209-BP) (human, UniProt Q9UK05 320-429)
T1 construct: Bought protein; also called human BMP9; human BMP9 recombinant protein (manufactured by R&D systems)
T1 sequence: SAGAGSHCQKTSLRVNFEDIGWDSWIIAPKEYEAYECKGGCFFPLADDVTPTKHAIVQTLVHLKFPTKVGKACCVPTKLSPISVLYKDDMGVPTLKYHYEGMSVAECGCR
Test: SPR (Biacore T100), antibody captured on anti-human IgG, human BMP9 (R&D 3209-BP) as analyte, 5 concentrations from 1 nM
endpoint: kon (M⁻¹ s⁻¹)

* 10D5-2-3 antibody-humanized antibody HV3LV3 (antibody, V domains shown, Expressed from pKANTEX93) VH: EVQLVESGGGLVQPGGSLRLSCAASGFTFSNYWMNWVRQAPGKGLEWVAHIRLKSDNYATHYAESVRGRFTISRDDSKNSLYLQMNSLKTEDTAVYYCTGGSNYVFAFWGQGTLVTVSS VL: DIVMTQSPDSLAVSLGERATINCRASESVDNYGISFMNWFQQKPGQPPKLLIYAASNQGSGVPDRFSGSGSGTDFTLTISPLQAEDVAVYFCQQSKEVPWTFGQGTKLEIK | 5.43e+07
* 10D5-2-3 antibody-humanized antibody HV4bLV3 (antibody, V domains shown, Expressed from pKANTEX93) VH: EVQLVESGGGLVQPGGSLRLSCAASGFTFSNYWMNWVRQAPGKGLEWVAHIRLKSDNYATHYAESVRGRFTISRDDSKNSLYLQMNSLKTEDTAIYYCTGGSNYVFAFWGQGTLVTVSS VL: DIVMTQSPDSLAVSLGERATINCRASESVDNYGISFMNWFQQKPGQPPKLLIYAASNQGSGVPDRFSGSGSGTDFTLTISPLQAEDVAVYFCQQSKEVPWTFGQGTKLEIK | 5.5e+07
* 10D5-2-3 antibody-humanized antibody HV4aLV0 (antibody, V domains shown, Expressed from pKANTEX93) VH: EVQLVESRGGLVQPGGSMRLSCAASGFTFSNYWMNWVRQAPGKGLEWVGHIRLKSDNYATHYAESVRGRFTISRDDSKSSLYLQMNSLKTEDTAVYYCAGGSNYVFAFWGQGTLVTVSS VL: DIVMTQSPDSLAVSLGERATINCRASESVDNYGISFMNWYQQKPGQPPKLLIYAASNQGSGVPDRFSGSGSGTDFTLTISSLQAEDVAVYYCQQSKEVPWTFGQGTKLEIK | 1.57e+08
* 10D5-2-3 antibody-humanized antibody HV3LV0 (antibody, V domains shown, Expressed from pKANTEX93) VH: EVQLVESGGGLVQPGGSLRLSCAASGFTFSNYWMNWVRQAPGKGLEWVAHIRLKSDNYATHYAESVRGRFTISRDDSKNSLYLQMNSLKTEDTAVYYCTGGSNYVFAFWGQGTLVTVSS VL: DIVMTQSPDSLAVSLGERATINCRASESVDNYGISFMNWYQQKPGQPPKLLIYAASNQGSGVPDRFSGSGSGTDFTLTISSLQAEDVAVYYCQQSKEVPWTFGQGTKLEIK | 1.51e+08
* 10D5-2-3 antibody-humanized antibody HV9LV0 (antibody, V domains shown, Expressed from pKANTEX93) VH: EVQLVESRGGLVQPGGSMRLSCAASGFTFSNYWMNWVRQAPGKGLEWVAHIRLKSDNYATHYAESVRGRFTISRDDSKSSVYLQMNSLKTEDTGIYYCTGGSNYVFAFWGQGTLVTVSS VL: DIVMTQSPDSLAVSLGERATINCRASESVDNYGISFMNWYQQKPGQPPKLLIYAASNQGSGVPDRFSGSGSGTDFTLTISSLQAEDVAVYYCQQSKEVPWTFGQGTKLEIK | 1.33e+08
